system: Escherichia coli TOP10; test: shrunken log2 fold change of peptide-encoding DNA abundance (4.5 h post-induction vs induction); higher = less antimicrobial activity (less host growth inhibition); details: time post-induction: 4.5 h; library: site-saturation at positions 5, 18, 19, 20
Measured shrunken log2 fold change, listed per entry.
Enter the number alone.

Value of shrunken log2 fold change reported for the sequence RRIRDRPPRLPRPRPRPARGPRP is 0.793

// shrunken log2 fold change lookup, sequence = RRIRTRPPRLPRPRPRPDFRPRP , result: 0.0337

// field: shrunken log2 fold change; key: RRIRLRPPRLPRPRPRPAIHPRP ; value = -0.192

Short answer for RRIRFRPPRLPRPRPRPMFHPRP : shrunken log2 fold change was -0.473

RRIRRRPPRLPRPRPRPERLPRP has a reported shrunken log2 fold change of 0.474

Summary for this sequence, RRIRDRPPRLPRPRPRPECWPRP : shrunken log2 fold change is 1.84

Recorded shrunken log2 fold change (sequence RRIRARPPRLPRPRPRPPKSPRP ): 0.658

Kindly consider the entry below.
// shrunken log2 fold change lookup, sequence = RRIRCRPPRLPRPRPRPCKDPRP , result: -0.142

----------
system: Escherichia coli TOP10; experiment: shrunken log2 fold change of peptide-encoding DNA abundance (4.5 h post-induction vs induction); higher = less antimicrobial activity (less host growth inhibition); conditions: time post-induction: 4.5 h; library: site-saturation at positions 5, 18, 19, 20
QUANTITY KIND: shrunken log2 fold change
Answer with a bare number; do not write a unit.

Some solved cases for reference:
shrunken log2 fold change for RRIRNRPPRLPRPRPRPHDEPRP is -0.103

The sequence listed as RRIRKRPPRLPRPRPRPIWFPRP has a reported shrunken log2 fold change of -0.0276

Further cases:
shrunken log2 fold change recorded for this sequence, RRIRKRPPRLPRPRPRPFRFPRP , is 0.125

Measured shrunken log2 fold change of RRIRMRPPRLPRPRPRPRACPRP : 0.593

Entry under test: RRIRHRPPRLPRPRPRPPKAPRP . Its shrunken log2 fold change was 0.0427

Record RRIRWRPPRLPRPRPRPNQLPRP , field shrunken log2 fold change: -0.208

----------
system: Escherichia coli TOP10; experiment: shrunken log2 fold change of peptide-encoding DNA abundance (4.5 h post-induction vs induction); higher = less antimicrobial activity (less host growth inhibition); conditions: time post-induction: 4.5 h; library: site-saturation at positions 5, 18, 19, 20
shrunken log2 fold change values for the sequences below.
Reply with just the number.

Use the examples below as a reference point.
Documented shrunken log2 fold change of RRIRWRPPRLPRPRPRPNYNPRP : -0.752

For reference, reported shrunken log2 fold change for RRIRKRPPRLPRPRPRPQPKPRP stands at 0.19

Reported shrunken log2 fold change for RRIRKRPPRLPRPRPRPWIAPRP was 0.285

Reported shrunken log2 fold change ( RRIRVRPPRLPRPRPRPDFNPRP ) = -0.344

Consider RRIRQRPPRLPRPRPRPMPSPRP . Its measured shrunken log2 fold change is -0.162

Reported shrunken log2 fold change of RRIRLRPPRLPRPRPRPNQVPRP : -0.294

# sequence RRIRLRPPRLPRPRPRPNLLPRP ; its shrunken log2 fold change = 0.153

For record RRIRERPPRLPRPRPRPSSPPRP the listed shrunken log2 fold change is -0.824

Attention now turns to another entry.
For RRIRHRPPRLPRPRPRPIVVPRP the sequence record lists shrunken log2 fold change as 0.0062

----------
tested on: Escherichia coli TOP10; assay: shrunken log2 fold change of peptide-encoding DNA abundance (4.5 h post-induction vs induction); higher = less antimicrobial activity (less host growth inhibition); conditions: time post-induction: 4.5 h; library: site-saturation at positions 5, 18, 19, 20
Label t when shrunken log2 fold change is at or above 0.01; otherwise label f.

Problem: Textbook exercise: given the entry RRIRKRPPRLPRPRPRPVLRPRP , state whether its shrunken log2 fold change is greater than or equal to 0.01.
Result: t

Problem: Quick check, shrunken log2 fold change >= 0.01? RRIRRRPPRLPRPRPRPYEKPRP
Result: t

Problem: Does the reported shrunken log2 fold change for RRIRWRPPRLPRPRPRPTQYPRP fall at or above the 0.01 mark?
Result: t

Problem: hey, is shrunken log2 fold change for this one >= 0.01? RRIRFRPPRLPRPRPRPENTPRP
Result: f

Problem: Decide: is the reported value of shrunken log2 fold change for RRIRFRPPRLPRPRPRPRIFPRP equal to or greater than 0.01?
Result: f

Problem: Is reported shrunken log2 fold change greater than or equal to 0.01 here: RRIRFRPPRLPRPRPRPMESPRP
Result: t

----------
tested on: Escherichia coli TOP10; experiment: shrunken log2 fold change of peptide-encoding DNA abundance (4.5 h post-induction vs induction); higher = less antimicrobial activity (less host growth inhibition); conditions: time post-induction: 4.5 h; library: site-saturation at positions 5, 18, 19, 20
Reported shrunken log2 fold change by item:

Completed entries (count: 10):
Entry RRIRFRPPRLPRPRPRPECWPRP , shrunken log2 fold change reported as 0.675

Form field shrunken log2 fold change, entry RRIRNRPPRLPRPRPRPLDIPRP : 0.0164

shrunken log2 fold change measured on RRIRKRPPRLPRPRPRPEPEPRP = 1.34

Field shrunken log2 fold change (entry RRIRTRPPRLPRPRPRPSIRPRP ) reads -0.183

So, RRIRNRPPRLPRPRPRPTIMPRP ? Its shrunken log2 fold change was -0.0883

Input RRIRERPPRLPRPRPRPWIMPRP . Output shrunken log2 fold change: -0.277

Record RRIRNRPPRLPRPRPRPCSVPRP . Reported shrunken log2 fold change: 0.0192

Given item RRIRTRPPRLPRPRPRPMRFPRP , the value recorded as its shrunken log2 fold change is 0.00408

Recorded shrunken log2 fold change (sequence RRIRERPPRLPRPRPRPGHPPRP ): 0.143

Item: RRIRCRPPRLPRPRPRPLLMPRP | shrunken log2 fold change: -0.195

Next:
The measured shrunken log2 fold change associated with RRIRMRPPRLPRPRPRPTYTPRP reads -0.173

For this sequence ( RRIRIRPPRLPRPRPRPFSNPRP ), measured shrunken log2 fold change is -0.28

Given item RRIRPRPPRLPRPRPRPGENPRP , the value recorded as its shrunken log2 fold change is 0.184

Data point: RRIRERPPRLPRPRPRPCRMPRP ; shrunken log2 fold change = -0.363

----------
test system: Escherichia coli TOP10; experiment: shrunken log2 fold change of peptide-encoding DNA abundance (4.5 h post-induction vs induction); higher = less antimicrobial activity (less host growth inhibition); conditions: time post-induction: 4.5 h; library: site-saturation at positions 5, 18, 19, 20
QUANTITY KIND: shrunken log2 fold change
Respond with the number and no other words.

Use these answered entries as a reference point.
Summary for this sequence, RRIRNRPPRLPRPRPRPPGHPRP : shrunken log2 fold change is 0.463

Recorded shrunken log2 fold change (sequence RRIRRRPPRLPRPRPRPCHYPRP ): 0.00952

Summary for this sequence, RRIRERPPRLPRPRPRPEGSPRP : shrunken log2 fold change is 0.0172

Further cases:
shrunken log2 fold change recorded for this sequence, RRIRIRPPRLPRPRPRPNKPPRP , is -0.119

Record RRIRLRPPRLPRPRPRPGQDPRP . Reported shrunken log2 fold change: 0.0899

Sure, the documented shrunken log2 fold change for RRIRCRPPRLPRPRPRPMVWPRP is 0.412

The recorded shrunken log2 fold change for RRIRPRPPRLPRPRPRPNPNPRP is 0.367

The sequence listed as RRIRERPPRLPRPRPRPLKYPRP has a reported shrunken log2 fold change of -0.38

shrunken log2 fold change measured on RRIRNRPPRLPRPRPRPAIIPRP = 0.154

So for RRIRWRPPRLPRPRPRPMGSPRP , the logged shrunken log2 fold change turned out to be -0.0192

Reported shrunken log2 fold change of RRIRARPPRLPRPRPRPQMNPRP : -0.113

Reported shrunken log2 fold change for RRIRNRPPRLPRPRPRPDCLPRP was 0.0127

Short answer for RRIRMRPPRLPRPRPRPNGYPRP : shrunken log2 fold change was 0.0495

Reported shrunken log2 fold change of RRIRLRPPRLPRPRPRPSEDPRP : -0.256

Per the records, this sequence ( RRIRKRPPRLPRPRPRPPCFPRP ) has shrunken log2 fold change equal to 0.211

Lab book: shrunken log2 fold change of RRIRNRPPRLPRPRPRPSRLPRP noted as 0.14

----------
// reported shrunken log2 fold change for each item listed
tested on: Escherichia coli TOP10; experiment: shrunken log2 fold change of peptide-encoding DNA abundance (4.5 h post-induction vs induction); higher = less antimicrobial activity (less host growth inhibition); settings: time post-induction: 4.5 h; library: site-saturation at positions 5, 18, 19, 20;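 also: peptides expressed intracellularly from a pBAD plasmid library in pooled LB shake-flask culture, induced with 0.3% L-arabinose, DNA abundance read by NGS, three biological replicates, DESeq2 with apeglm shrinkage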
The response must contain the number and no unit.

Record summary for RRIRQRPPRLPRPRPRPNTMPRP : reported shrunken log2 fold change = 0.12

# shrunken log2 fold change of RRIRTRPPRLPRPRPRPPRIPRP = 0.27

response.value for RRIRQRPPRLPRPRPRPTRSPRP (field: shrunken log2 fold change) = 0.164

RRIRPRPPRLPRPRPRPCQVPRP yielded shrunken log2 fold change of -0.132

shrunken log2 fold change reading for RRIRIRPPRLPRPRPRPSTYPRP : -1.63

The measured shrunken log2 fold change associated with RRIRQRPPRLPRPRPRPVFCPRP reads 0.0139

shrunken log2 fold change reading for RRIRWRPPRLPRPRPRPKEEPRP : 1.07

Form field shrunken log2 fold change, entry RRIRTRPPRLPRPRPRPKSAPRP : 0.221

shrunken log2 fold change reading for RRIRRRPPRLPRPRPRPGAYPRP : 0.00783

The reported shrunken log2 fold change of the sequence RRIRARPPRLPRPRPRPPNDPRP was 0.459

New cases:
Short answer for RRIRPRPPRLPRPRPRPRRDPRP : shrunken log2 fold change was 0.302

Field shrunken log2 fold change (entry RRIRRRPPRLPRPRPRPGVKPRP ) reads 0.187
